- System: PANC-08-13 (Pancreatic Carcinoma)
- testDetails: Bliss excess, mean over the matrix (fraction); higher = more synergy;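 note: after 72 h of two-drug dosing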
experimentalReadout: Bliss excess
Returns: the value as a bare number; no unit string appended.

compound: CN(C)CCCOc1ccc(-c2ccc3ncc4c(c3c2)n(C2CCOCC2)c(=O)n4C)cn1 [AZD0156] + CCN(CCO)CCCOc1ccc2c(Nc3cc(CC(=O)Nc4cccc(F)c4)[nH]n3)ncnc2c1 [AZD2811] (first compound max 1 µM, 7x7, partner max 1 µM)
measured: -0.0461

Pending compound:
Query: Field request: Bliss excess | item: CC(=O)c1c(C)c2cnc(Nc3ccc(N4CCNCC4)cn3)nc2n(C2CCCC2)c1=O [Palbociclib] + CC1(C)CCC(CN2CCN(c3ccc(C(=O)NS(=O)(=O)c4ccc(NCC5CCOCC5)c([N+](=O)[O-])c4)c(Oc4cnc5[nH]ccc5c4)c3)CC2)=C(c2ccc(Cl)cc2)C1 [Venetoclax] (first compound max 10 µM, 7x7, partner max 1 µM)
Response: -0.0361

###

- Test system: KARPAS-45 (T-Lymphoblastic Leukemia)
- testDetails: Bliss excess, mean over the matrix (fraction); higher = more synergy
Each entry below carries its recorded Bliss excess.
Response field accepts a number only; no unit should be typed.

molecule: CC1(C)CCC(CN2CCN(c3ccc(C(=O)NS(=O)(=O)c4ccc(NCC5CCOCC5)c([N+](=O)[O-])c4)c(Oc4cnc5[nH]ccc5c4)c3)CC2)=C(c2ccc(Cl)cc2)C1 [Venetoclax] + Cn1cnc2c(F)c(Nc3ccc(Br)cc3Cl)c(C(=O)NOCCO)cc21 [Selumetinib] (first compound max 1 µM, 7x7, partner max 3 µM)
assayedSystem: KARPAS-45 (T-Lymphoblastic Leukemia)
experimentalReadout: Bliss excess
measured: 0.0372
//
molecule: C[C@@H](c1ccc2nccn2c1)n1nnc2ncc(-c3cnn(C)c3)nc21 [Savolitinib] + Cc1c2c(nn1C)CSCc1cc(n(C)n1)CSc1cc(c3ccccc3c1)OCCCc1c(C(=O)O)n(C)c3c-2c(Cl)ccc13 [AZD5991] (first compound max 1 µM, 7x7, partner max 1 µM)
assayedSystem: KARPAS-45 (T-Lymphoblastic Leukemia)
experimentalReadout: Bliss excess
measured: -0.0264

Now for the molecule whose Bliss excess we want.
Query: Param readout = Bliss excess; param system = KARPAS-45 (T-Lymphoblastic Leukemia); param query = NC1(C(=O)N[C@@H](CCO)c2ccc(Cl)cc2)CCN(c2ncnc3[nH]ccc23)CC1 [Capivasertib] + C[C@@H]1COCCN1C2=NC(=NC(=C2)C3(CC3)[S@](=N)(=O)C)C4=C5C=CNC5=NC=C4 [AZD6738] (first compound max 10 µM, 7x7, partner max 10 µM) ; response: value
Response: -0.0238

###

- Test system: SW837 (Colorectal Carcinoma)
- testDetails: Bliss excess, mean over the matrix (fraction); higher = more synergy
experimentalReadout: Bliss excess
Kindly provide the number alone.

Answered examples (5):
compound: COc1cccc2c1C(=O)c1c(O)c3c(c(O)c1C2=O)C[C@@](O)(C(=O)CO)C[C@@H]3O[C@H]1C[C@H](N)[C@H](O)[C@H](C)O1 [Doxorubicin] + Cc1cc2ncnn2cc1Nc1ncc2c(n1)n(C1CCOCC1)c(=O)n2C [AZD7648] (first compound max 1 µM, 7x7, partner max 10 µM)
assayedSystem: SW837 (Colorectal Carcinoma)
Bliss excess: 0.0068
--
compound: CN(C)CCCOc1ccc(-c2ccc3ncc4c(c3c2)n(C2CCOCC2)c(=O)n4C)cn1 [AZD0156] + CCN(CCO)CCCOc1ccc2c(Nc3cc(CC(=O)Nc4cccc(F)c4)[nH]n3)ncnc2c1 [AZD2811] (first compound max 1 µM, 7x7, partner max 1 µM)
assayedSystem: SW837 (Colorectal Carcinoma)
Bliss excess: -0.0263
--
compound: C=CCn1c(=O)c2cnc(Nc3ccc(N4CCN(C)CC4)cc3)nc2n1-c1cccc(C(C)(C)O)n1 [AZD1775] + C1CN(CCC1(C(=O)N[C@@H](CCO)C2=CC=C(C=C2)Cl)N)C3=NC=NC4=C3C=CN4 [Capivasertib] (first compound max 3 µM, partner max 3 µM)
assayedSystem: SW837 (Colorectal Carcinoma)
Bliss excess: -0.0504
--
compound: COc1cccc(OCCCN)c1-c1cc(Nc2cnc(C#N)cn2)n[nH]1 [Prexasertib] + O=C(c1cc(Cc2n[nH]c(=O)c3ccccc23)ccc1F)N1CCN(C(=O)C2CC2)CC1 [Olaparib] (first compound max 1 µM, 7x7, partner max 10 µM)
assayedSystem: SW837 (Colorectal Carcinoma)
Bliss excess: -0.0854
--
compound: C[C@@H]1COCCN1c1cc(C2([S@](C)(=N)=O)CC2)nc(-c2ccnc3[nH]ccc23)n1 [AZD6738] + Nc1ccn([C@@H]2O[C@H](CO)[C@@H](O)C2(F)F)c(=O)n1 [Gemcitabine] (first compound max 10 µM, 7x7, partner max 0.3 µM)
assayedSystem: SW837 (Colorectal Carcinoma)
Bliss excess: 0.065

Query: # lookup: Bliss excess of CN(CCO)CC[C@H](CSc1ccccc1)Nc1ccc(S(=O)(=O)NC(=O)c2ccc(N3CCC([C@@H](O)c4ccccc4-c4ccc(Cl)cc4)CC3)cc2)cc1S(=O)(=O)C(F)(F)F [AZD4320] + Cc1cc2ncnn2cc1Nc1ncc2c(n1)n(C1CCOCC1)c(=O)n2C [AZD7648] (first compound max 1 µM, 7x7, partner max 10 µM)
Response: -0.0273

Query: Look up Bliss excess: CC1(C)CCC(CN2CCN(c3ccc(C(=O)NS(=O)(=O)c4ccc(NCC5CCOCC5)c([N+](=O)[O-])c4)c(Oc4cnc5[nH]ccc5c4)c3)CC2)=C(c2ccc(Cl)cc2)C1 [Venetoclax] + C[C@@H]1COCCN1C2=NC(=NC(=C2)C3(CC3)[S@](=N)(=O)C)C4=C5C=CNC5=NC=C4 [AZD6738] (first compound max 1 µM, 7x7, partner max 10 µM)
Response: -0.003
